system: Escherichia coli TOP10; assay: shrunken log2 fold change of peptide-encoding DNA abundance (4.5 h post-induction vs induction); higher = less antimicrobial activity (less host growth inhibition); conditions: time post-induction: 4.5 h; library: site-saturation at positions 5, 18, 19, 20
Each entry gets -1 if its shrunken log2 fold change stays under -0.08, and 1 if its shrunken log2 fold change is -0.08 or above.

sequence_code=RRIRPRPPRLPRPRPRPSCRPRP assigned_class=-1
sequence_code=RRIRARPPRLPRPRPRPRQYPRP assigned_class=-1
sequence_code=RRIRTRPPRLPRPRPRPHWIPRP assigned_class=-1
sequence_code=RRIRRRPPRLPRPRPRPIETPRP assigned_class=1
sequence_code=RRIRLRPPRLPRPRPRPFSAPRP assigned_class=-1

Tell me whether shrunken log2 fold change is at least -0.08 here: `RRIRLRPPRLPRPRPRPYSNPRP`
-1

Can you check `RRIRIRPPRLPRPRPRPEDMPRP` next?
1

Can you check `RRIRSRPPRLPRPRPRPLCMPRP` next?
-1

Can you check `RRIRGRPPRLPRPRPRPHKGPRP` next?
-1

---

tested on: Escherichia coli TOP10; experiment: shrunken log2 fold change of peptide-encoding DNA abundance (4.5 h post-induction vs induction); higher = less antimicrobial activity (less host growth inhibition); settings: time post-induction: 4.5 h; library: site-saturation at positions 5, 18, 19, 20
MEASURED_QUANTITY: shrunken log2 fold change

Look over these answered cases.
sequence_code=RRIRMRPPRLPRPRPRPVNVPRP measured_quantity="shrunken log2 fold change" value_observed=0.0663
sequence_code=RRIRSRPPRLPRPRPRPLNRPRP measured_quantity="shrunken log2 fold change" value_observed=-0.246
sequence_code=RRIRERPPRLPRPRPRPLSAPRP measured_quantity="shrunken log2 fold change" value_observed=-0.229
sequence_code=RRIRFRPPRLPRPRPRPDIWPRP measured_quantity="shrunken log2 fold change" value_observed=-0.273
sequence_code=RRIRMRPPRLPRPRPRPDNHPRP measured_quantity="shrunken log2 fold change" value_observed=-0.21
sequence_code=RRIRVRPPRLPRPRPRPYMPPRP measured_quantity="shrunken log2 fold change" value_observed=-0.78

Next item in the queue.
// shrunken log2 fold change lookup, key: `RRIRYRPPRLPRPRPRPNLIPRP`
-0.438

---

tested on: Escherichia coli TOP10; experiment: shrunken log2 fold change of peptide-encoding DNA abundance (4.5 h post-induction vs induction); higher = less antimicrobial activity (less host growth inhibition); conditions: time post-induction: 4.5 h; library: site-saturation at positions 5, 18, 19, 20
Each entry gets false if its shrunken log2 fold change stays under -0.2, and true if its shrunken log2 fold change is -0.2 or above.

sequence_code=RRIRCRPPRLPRPRPRPYMFPRP assigned_class=false
sequence_code=RRIRERPPRLPRPRPRPVVFPRP assigned_class=true
sequence_code=RRIRHRPPRLPRPRPRPFEMPRP assigned_class=false

Tell me whether shrunken log2 fold change is at least -0.2 here: `RRIRFRPPRLPRPRPRPNMPPRP`
false

---

test system: Escherichia coli TOP10; assay: shrunken log2 fold change of peptide-encoding DNA abundance (4.5 h post-induction vs induction); higher = less antimicrobial activity (less host growth inhibition); conditions: time post-induction: 4.5 h; library: site-saturation at positions 5, 18, 19, 20
Entries and their measured shrunken log2 fold change follow.
Answer with the value's number alone.

Look over these answered cases.
sequence_code=RRIRNRPPRLPRPRPRPFTRPRP tested_target="Escherichia coli TOP10" value_observed=0.00645
sequence_code=RRIRVRPPRLPRPRPRPGFMPRP tested_target="Escherichia coli TOP10" value_observed=-0.152
sequence_code=RRIRERPPRLPRPRPRPAVHPRP tested_target="Escherichia coli TOP10" value_observed=-0.144
sequence_code=RRIRMRPPRLPRPRPRPYWTPRP tested_target="Escherichia coli TOP10" value_observed=-0.354
sequence_code=RRIRQRPPRLPRPRPRPWGEPRP tested_target="Escherichia coli TOP10" value_observed=-0.0675
sequence_code=RRIRYRPPRLPRPRPRPWWFPRP tested_target="Escherichia coli TOP10" value_observed=-0.195
sequence_code=RRIRPRPPRLPRPRPRPMWKPRP tested_target="Escherichia coli TOP10" value_observed=-0.146
sequence_code=RRIRSRPPRLPRPRPRPNKYPRP tested_target="Escherichia coli TOP10" value_observed=-0.653

Next item in the queue.
Lab request: please report shrunken log2 fold change under test system Escherichia coli TOP10 for `RRIRGRPPRLPRPRPRPTEFPRP`
0.327

---

tested on: Escherichia coli TOP10; assay: shrunken log2 fold change of peptide-encoding DNA abundance (4.5 h post-induction vs induction); higher = less antimicrobial activity (less host growth inhibition); details: time post-induction: 4.5 h; library: site-saturation at positions 5, 18, 19, 20
Entries and their measured shrunken log2 fold change follow.
Answer with the value's number alone.

sequence_code=RRIRIRPPRLPRPRPRPGMVPRP measured_quantity="shrunken log2 fold change" value_observed=0.0533
sequence_code=RRIRYRPPRLPRPRPRPMNYPRP measured_quantity="shrunken log2 fold change" value_observed=-0.49
sequence_code=RRIRVRPPRLPRPRPRPFCRPRP measured_quantity="shrunken log2 fold change" value_observed=-0.215
sequence_code=RRIRPRPPRLPRPRPRPSSSPRP measured_quantity="shrunken log2 fold change" value_observed=-0.134
sequence_code=RRIRPRPPRLPRPRPRPCPCPRP measured_quantity="shrunken log2 fold change" value_observed=-0.481
sequence_code=RRIRVRPPRLPRPRPRPCMWPRP measured_quantity="shrunken log2 fold change" value_observed=0.0384
sequence_code=RRIRDRPPRLPRPRPRPTKSPRP measured_quantity="shrunken log2 fold change" value_observed=0.366
sequence_code=RRIRERPPRLPRPRPRPEKLPRP measured_quantity="shrunken log2 fold change" value_observed=-0.296
sequence_code=RRIRFRPPRLPRPRPRPGYRPRP measured_quantity="shrunken log2 fold change" value_observed=-0.0212
sequence_code=RRIRGRPPRLPRPRPRPNCWPRP measured_quantity="shrunken log2 fold change" value_observed=0.303

Next item in the queue.
// shrunken log2 fold change lookup, key: `RRIRRRPPRLPRPRPRPYMVPRP`
-0.361

---

test system: Escherichia coli TOP10; experiment: shrunken log2 fold change of peptide-encoding DNA abundance (4.5 h post-induction vs induction); higher = less antimicrobial activity (less host growth inhibition); settings: time post-induction: 4.5 h; library: site-saturation at positions 5, 18, 19, 20
Each entry gets Not met if its shrunken log2 fold change stays under 0.05, and Met if its shrunken log2 fold change is 0.05 or above.

sequence_code=RRIRPRPPRLPRPRPRPNIPPRP assigned_class="Not met"

Tell me whether shrunken log2 fold change is at least 0.05 here: `RRIRSRPPRLPRPRPRPQTFPRP`
Not met

Can you check `RRIRARPPRLPRPRPRPVCMPRP` next?
Met

Can you check `RRIRMRPPRLPRPRPRPFGAPRP` next?
Met

Can you check `RRIRGRPPRLPRPRPRPSLAPRP` next?
Met

---

system: Escherichia coli TOP10; assay: shrunken log2 fold change of peptide-encoding DNA abundance (4.5 h post-induction vs induction); higher = less antimicrobial activity (less host growth inhibition); settings: time post-induction: 4.5 h; library: site-saturation at positions 5, 18, 19, 20
Each entry gets false if its shrunken log2 fold change stays under -0.03, and true if its shrunken log2 fold change is -0.03 or above.

sequence_code=RRIRTRPPRLPRPRPRPWCFPRP assigned_class=false
sequence_code=RRIRYRPPRLPRPRPRPIAPPRP assigned_class=false
sequence_code=RRIRARPPRLPRPRPRPCKNPRP assigned_class=true
sequence_code=RRIRLRPPRLPRPRPRPSKFPRP assigned_class=false
sequence_code=RRIRGRPPRLPRPRPRPDHLPRP assigned_class=true

Tell me whether shrunken log2 fold change is at least -0.03 here: `RRIRQRPPRLPRPRPRPWLFPRP`
true

Can you check `RRIRSRPPRLPRPRPRPWVVPRP` next?
true

---

test system: Escherichia coli TOP10; experiment: shrunken log2 fold change of peptide-encoding DNA abundance (4.5 h post-induction vs induction); higher = less antimicrobial activity (less host growth inhibition); settings: time post-induction: 4.5 h; library: site-saturation at positions 5, 18, 19, 20;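 also: peptides expressed intracellularly from a pBAD plasmid library in pooled LB shake-flask culture, induced with 0.3% L-arabinose, DNA abundance read by NGS, three biological replicates, DESeq2 with apeglm shrinkage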
Each entry gets not satisfied if its shrunken log2 fold change stays under 0.08, and satisfied if its shrunken log2 fold change is 0.08 or above.

Below, 10 sequences whose answers are already recorded.
sequence_code=RRIRVRPPRLPRPRPRPPILPRP assigned_class="not satisfied"
sequence_code=RRIRLRPPRLPRPRPRPAQKPRP assigned_class=satisfied
sequence_code=RRIRYRPPRLPRPRPRPCVCPRP assigned_class="not satisfied"
sequence_code=RRIRYRPPRLPRPRPRPDTHPRP assigned_class="not satisfied"
sequence_code=RRIRKRPPRLPRPRPRPFISPRP assigned_class="not satisfied"
sequence_code=RRIRHRPPRLPRPRPRPDKVPRP assigned_class=satisfied
sequence_code=RRIRIRPPRLPRPRPRPPDVPRP assigned_class="not satisfied"
sequence_code=RRIRCRPPRLPRPRPRPNKLPRP assigned_class="not satisfied"
sequence_code=RRIRPRPPRLPRPRPRPEWIPRP assigned_class="not satisfied"
sequence_code=RRIRCRPPRLPRPRPRPFSMPRP assigned_class="not satisfied"

Tell me whether shrunken log2 fold change is at least 0.08 here: `RRIRHRPPRLPRPRPRPLTQPRP`
not satisfied

Can you check `RRIRCRPPRLPRPRPRPPSDPRP` next?
satisfied

Can you check `RRIRFRPPRLPRPRPRPMARPRP` next?
not satisfied

Can you check `RRIRVRPPRLPRPRPRPKEVPRP` next?
satisfied

Can you check `RRIRNRPPRLPRPRPRPAGFPRP` next?
not satisfied
